target: T1, recombinant human TfR1 (transferrin receptor 1) (human, UniProt P02786 89-760); test: phage ELISA
T1 construct: Bought recombinant His-tagged protein; also called hTfR1
T1 sequence (P02786 89-760 limits assumed): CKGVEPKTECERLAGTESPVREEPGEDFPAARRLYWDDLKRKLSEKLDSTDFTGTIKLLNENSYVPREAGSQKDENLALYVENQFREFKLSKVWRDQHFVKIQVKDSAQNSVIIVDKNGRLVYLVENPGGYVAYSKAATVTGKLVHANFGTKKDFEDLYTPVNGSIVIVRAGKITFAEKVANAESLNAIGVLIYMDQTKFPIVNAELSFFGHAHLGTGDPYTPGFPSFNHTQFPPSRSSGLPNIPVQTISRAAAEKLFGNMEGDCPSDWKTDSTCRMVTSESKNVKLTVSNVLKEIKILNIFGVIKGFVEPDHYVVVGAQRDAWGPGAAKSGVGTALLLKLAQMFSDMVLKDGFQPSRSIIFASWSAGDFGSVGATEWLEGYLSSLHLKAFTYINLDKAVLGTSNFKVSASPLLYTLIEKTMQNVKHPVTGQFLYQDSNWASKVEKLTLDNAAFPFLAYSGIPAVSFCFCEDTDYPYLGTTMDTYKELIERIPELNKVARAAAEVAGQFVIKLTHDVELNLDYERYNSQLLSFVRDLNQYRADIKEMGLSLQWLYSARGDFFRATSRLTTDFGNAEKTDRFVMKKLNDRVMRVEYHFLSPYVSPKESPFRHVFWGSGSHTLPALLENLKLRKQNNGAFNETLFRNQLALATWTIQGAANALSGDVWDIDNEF
attribute measured: binding result

- binder: "SEQ ID NO 44 (VNAR clone displayed on phage) (VNAR, shark VNAR domain on M13 phage; coat-protein fusion not described) VNAR: ARVDQTPRSVTKETGESLTINCVLRDASYALGSTCWYRKKSGSTNEESISKGGRYVETVNSGSKSFSLRINDLTVEDGGTYRCGVCQCWSANVWVDCDMTSTSIRMRDGSRSNARAACGDGTAVTVNA"
  attribute measured: "binding result"
  result: "binds"
- binder: "SEQ ID NO 34 (VNAR clone displayed on phage) (VNAR, shark VNAR domain on M13 phage; coat-protein fusion not described) VNAR: ARVDQTPQTITKETGESLTINCVLRDSNCDLSRTYWYRKKSGSTNEESISKGGRYVETVNSGSKSFSLRINDLVVEDSGTYRCNVAVFTRCHNQQDVYGGGTAVTVNA"
  attribute measured: "binding result"
  result: "binds"
- binder: "SEQ ID NO 22 (VNAR clone displayed on phage) (VNAR, shark VNAR domain on M13 phage; coat-protein fusion not described) VNAR: ARVDQTPQTITKETGESLTINCVLRDSNCALSSTYWYRKKSDSTNEESISKGGRYVETVNSGSKSFSLRINDLTVEDSGTYRCKVHSFNMDVCAEFQYSDVYGDGTAVTVNA"
  attribute measured: "binding result"
  result: "binds"
- binder: "SEQ ID NO 14 (VNAR clone displayed on phage) (VNAR, shark VNAR domain on M13 phage; coat-protein fusion not described) VNAR: ARVDQTPQTITKETGESLTINCVLRDSNCALPSTYWYRKKSGSTNEESISKGGRYVETVNSGSKSFSLRINDLTVEDSGTYRCKVTFSAFEYCYVFKVQCDVYGDGTAVTVNA"
  attribute measured: "binding result"
  result: "binds"
- binder: "SEQ ID NO 31 (VNAR clone displayed on phage) (VNAR, shark VNAR domain on M13 phage; coat-protein fusion not described) VNAR: ARVDQTPQTITKETGESLTINCVLRDSNCDLSRTYWYRKKSGSTNEESISKGGRYVETVNSGSKSFSLKINDLTVEDSGTYRCNVFLWNNYNPMDVYGGGTAVTVNA"
  attribute measured: "binding result"
  result: "binds"
